These measurements were taken from PubChem BioAssay AID1159580.

ASSAY_TEXT: chemical genetic growth profiling, strain panel (AID 1159580);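 also: tested at 20 µM; growth read once vehicle control cultures reached saturation at 30 °C; 1 = growth at the plate median or of vehicle wells; lower values mean less growth of the strain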
COND: S. cerevisiae deletion strains, growth OD, locus YOR061W, strain CKA2, active compounds read low
The campaign covered roughly 5,500 compounds. About 2,000 (36%) were called active. About 18% were inconclusive and are not listed. Some of the results follow.
Each entry below carries its recorded normalized growth.
RESULT_TYPE: normalized growth

>>> assay_value("NC(=NCCC[C@H](N)C(=O)O)NC(CCC(=O)O)C(=O)O (some centres undefined)")
1.01
>>> assay_value("C=CCC1(C(C)CCC)C(=O)N=C(S)NC1=O (centres undefined)")
0.99
>>> assay_value("O=C(c1ccccc1)c1cc(Cl)ccc1NC(=S)Nc1ccc(F)cc1")
0.973
>>> assay_value("Cc1ccsc1/C=C/C1=NCCCN1C")
1.01
>>> assay_value("O=C(Nc1ccc(N2CCOCC2)cc1)c1ccc(-n2cccn2)cc1")
0.952
>>> assay_value("C=C(CC)C(=O)c1ccc(OCC(=O)O)c(Cl)c1Cl")
0.964
>>> assay_value("O=C1CSC(c2cccnc2)N1c1ccc(Cl)cc1Cl (centres undefined)")
0.939
>>> assay_value("S=C(N/N=C\\c1ccc(Cl)cc1)N/N=C\\c1ccc(Cl)cc1")
0.618
>>> assay_value("CC(=O)Oc1ccc(Cl)c2cccnc12")
0.0492
>>> assay_value("CC1(C)C(O)CC(O)C2(C)C1CC(=O)C1(C)C2CCC2(C)C(C(=O)O)OC(=O)C3OC321 (centres undefined)")
1.01
>>> assay_value("Nc1nc2c(ncn2C2C[C@H](O)[C@@H](CO)O2)c(=O)[nH]1 (some centres undefined)")
0.998
>>> assay_value("COC(=O)C1=C(C)NC(C)=C(C(=O)OC)C1c1ccc(Cl)cc1Cl")
0.93
>>> assay_value("CC(C)(C)NC[C@@H](O)COc1nsnc1N1CCOCC1")
1
>>> assay_value("Oc1c(I)cc(I)c2cccnc12")
0.0666
>>> assay_value("CCOC(=O)/C(=N/Nc1c(Cl)cccc1Cl)c1csc(N)n1")
0.906
>>> assay_value("COc1cc2c(c(OC)c1OC)-c1ccc(OC)c(=O)cc1[C@@H](NC(C)=O)CC2")
1.03
>>> assay_value("N#CCC(=O)NNC(=S)Nc1ccc(Cl)c(Cl)c1")
0.95
>>> assay_value("O=C(O)CCCCC1CCSS1 (centres undefined)")
0.97
>>> assay_value("O=C(NC(=O)c1c(F)cccc1Cl)OCc1ccc(Cl)cc1Cl")
0.899
>>> assay_value("Cc1c(C)c(C)c(CSC(N)=Nc2ccc(F)cc2)c(C)c1C")
0.972
>>> assay_value("OC[C@@H]1CCCN2CCCC[C@H]12")
1.01
>>> assay_value("CCOC(=O)C1=C(N)OC2=C(C(=O)CC(C)(C)C2)C1c1ccc(Cl)cc1Cl (centres undefined)")
0.958
>>> assay_value("O=c1[nH]c(=O)n(C2C[C@@H](O)[C@@H](CO)O2)cc1F (some centres undefined)")
1.01
>>> assay_value("CCC[C@H]1CC2=C(C[C@@H](CC)CC3=C1C(=O)OC3=O)C(=O)OC2=O")
1.01
